# assay_overview: qHTS assay for identifying genotoxic compounds that show differential cytotoxicity against isogenic chicken DT40 cell lines with known DNA damage response pathways - Rev3 mutant cell line (AID 743014); further: nearly all actives have a fitted effect of over 55% in size
# test_settings: chicken DT40 Rev3-/- viability, CellTiter-Glo, 40 h; series mostly up to 68.4 µM
Inconclusive results are not listed. Activity calls are given as the source filed them. The call rests on the fitted dose curve; in most records, active means well fitted cell-killing curve with a large enough effect in the repeat runs; inconclusive means weak or mixed curves, or effect the other way; inactive means no such curve, though single readings can be large or run the other way.
Assign a class; possible classes are active, inactive

{"compound": "c1ccc2c(c1)cc1ccc3cccc4ccc2c1c34", "group_label": "inactive"}
{"compound": "[Cl-].[Cl-].[Cl-].[Yb+3]", "group_label": "inactive"}
{"compound": "C#CC1(O)CCCCC1", "group_label": "inactive"}
{"compound": "CNC(C)(C)Cc1ccccc1", "group_label": "inactive"}
{"compound": "O=Cc1ccccc1", "group_label": "inactive"}
{"compound": "COP(=S)(OC)Oc1nc(Cl)c(Cl)cc1Cl", "group_label": "active"}

[ask] Entry `COc1ccc2c3c1O[C@H]1[C@H](O)CC[C@H]4[C@@H](C2)N(C)CC[C@@]341` : call = ?
[reply] inactive

The reported numbers originate from PubChem BioAssay (Tox21).
